biological target: Quadruplex DNA; test: Displacement of thiazole orange from Tel26 G4 quadruplex DNA (unknown origin) assessed as relative affinity by fluorescent intercalator displacement assay
endpointName: pIC50
// pIC50: -log10(molar conc.)

stdin: Could you please provide reported pIC50 for `CN(C)CCOc1ccc2c(ccn2-c2ccc3ccc(-n4ccc5cc(OCCN(C)C)ccc54)nc3n2)c1` ? Thanks!
stdout: 5.17
